experiment: The drug is tested on WLS-027 corresponding to human gut metagenome with ENA study accession number: PRJEB37062 and ENA sample accession number: ERS12561744 for biotransformation under anaerobic condition. The drug concentrations were measured over 9 timepoints collected between 0 and 24 hours of incubation by liquid-chromatography-coupled mass spectrometry (LC–MS); settings: 2 µM; note: call rule not given here
QUANTITY MEASURED: Bacterial Biotransformation

* COc1ccc([C@@H]2Sc3ccccc3N(CCN(C)C)C(=O)[C@@H]2OC(C)=O)cc1 | Compound metabolized
* CC(=O)Oc1ccc(C(c2ccc(OC(C)=O)cc2)c2ccccn2)cc1 | Compound metabolized
* COC(=O)[C@H](c1ccccc1Cl)N1CCc2sccc2C1.O=S(=O)(O)O [CLOPIDOGREL BISULFATE] | Compound NOT metabolized
* CCN(CC)CCOC(=O)C1(C2CCCCC2)CCCCC1 | Compound metabolized
* CN(C)CCC=C1c2ccccc2COc2ccccc21 [DOXEPIN] | Compound metabolized
* CN[C@H]1CC[C@@H](c2ccc(Cl)c(Cl)c2)c2ccccc21 | Compound metabolized
* Cc1cc2c(s1)Nc1ccccc1N=C2N1CCN(C)CC1 | Compound NOT metabolized
* CN(C)CCc1c[nH]c2ccc(CS(=O)(=O)N3CCCC3)cc12 | Compound NOT metabolized
* Nc1nc(NC2CC2)c2ncn([C@H]3C=C[C@@H](CO)C3)c2n1.Nc1nc(NC2CC2)c2ncn([C@H]3C=C[C@@H](CO)C3)c2n1.O=S(=O)(O)O [ABACAVIR SULFATE] | Compound NOT metabolized
* CCOC(=O)[C@H](CCc1ccccc1)N[C@@H](C)C(=O)N1CCC[C@H]1C(=O)O.O=C(O)/C=C\C(=O)O [ENALAPRIL MALEATE] | Compound NOT metabolized
* CCCN1C[C@H](CSC)C[C@@H]2c3cccc4[nH]cc(c34)C[C@H]21.CS(=O)(=O)O [PERGOLIDE MESYLATE] | Compound NOT metabolized
* CNCC[C@H](Oc1cccc2ccccc12)c1cccs1 | Compound NOT metabolized

====

conditions: human gut metagenome, 24 h, 2 µM
QUANTITY MEASURED: Bacterial Biotransformation

* CC(=O)CCCCn1c(=O)c2c(ncn2C)n(C)c1=O | Compound NOT metabolized
* CCOc1ccc2nc(S(N)(=O)=O)sc2c1 [ETHOXZOLAMIDE] | Compound NOT metabolized
* CN(C)C(=O)Oc1cccc([N+](C)(C)C)c1.[Br-] [NEOSTIGMINE BROMIDE] | Compound NOT metabolized
* C#C[C@]1(OC(C)=O)CC[C@H]2[C@@H]3CCC4=CC(=O)CC[C@@H]4[C@H]3CC[C@@]21C [NORETHINDRONE ACETATE] | Compound metabolized
* O=C(O)c1cc(/N=N/c2ccc(S(=O)(=O)Nc3ccccn3)cc2)ccc1O | Compound metabolized
* CN[C@H]1CC[C@@H](c2ccc(Cl)c(Cl)c2)c2ccccc21 | Compound metabolized
* OC(c1cc(C(F)(F)F)nc2c(C(F)(F)F)cccc12)C1CCCCN1 (stereo not drawn) | Compound NOT metabolized
* CC(=O)OCC(=O)[C@@]1(OC(C)=O)[C@@H](C)C[C@H]2[C@@H]3C[C@H](F)C4=CC(=O)C=C[C@]4(C)[C@@]3(F)[C@@H](O)C[C@@]21C [DIFLORASONE DIACETATE] | Compound metabolized

====

settings: human gut metagenome, 24 h, 2 µM
QUANTITY MEASURED: Bacterial Biotransformation

* CN(C/C=C/C#CC(C)(C)C)Cc1cccc2ccccc12 | Compound NOT metabolized
* CCOc1ccc2nc(S(N)(=O)=O)sc2c1 [ETHOXZOLAMIDE] | Compound NOT metabolized
* CCc1cccc2c3c([nH]c12)C(CC)(CC(=O)O)OCC3 (stereo not given) | Compound metabolized
* O=C1N=C([O-])NC1(c1ccccc1)c1ccccc1.[Na+] [PHENYTOIN SODIUM] | Compound metabolized
* COc1ccccc1OCCNCC(O)COc1cccc2[nH]c3ccccc3c12 (stereo not given) | Compound metabolized

====

settings: human gut metagenome, 24 h, 2 µM
QUANTITY MEASURED: Bacterial Biotransformation

- N#Cc1ccc2c(c1)N(CCCN1CCC(O)CC1)c1ccccc1S2: Compound metabolized
- CC(=O)OCC(CCn1cnc2cnc(N)nc21)COC(C)=O: Compound metabolized
- CCOC(=O)[C@H](CCc1ccccc1)N[C@@H](C)C(=O)N1CCC[C@H]1C(=O)O.O=C(O)/C=C\C(=O)O [ENALAPRIL MALEATE]: Compound NOT metabolized
- Nc1nnc(-c2cccc(Cl)c2Cl)c(N)n1: Compound NOT metabolized
- CC12CC3CC(C)(C1)CC(N)(C3)C2 [MEMANTINE]: Compound NOT metabolized
- COc1ccc2c(c1)c(CC(=O)O)c(C)n2C(=O)c1ccc(Cl)cc1: Compound metabolized
- OCCN(CCO)c1nc(N2CCCCC2)c2nc(N(CCO)CCO)nc(N3CCCCC3)c2n1: Compound NOT metabolized
- COc1cc2nc(N3CCN(C(=O)C4CCCO4)CC3)nc(N)c2cc1OC (centres undefined): Compound metabolized
- CSc1ccc2c(c1)C(N1CCN(C)CC1)Cc1ccccc1S2.O=C(O)/C=C\C(=O)O (centres undefined): Compound NOT metabolized

====

settings: human gut metagenome, 24 h, 2 µM
QUANTITY MEASURED: Bacterial Biotransformation

- O=C(CCCN1CCC2(CC1)C(=O)NCN2c1ccccc1)c1ccc(F)cc1: Compound NOT metabolized
- CC(=O)CCCCn1c(=O)c2c(ncn2C)n(C)c1=O: Compound NOT metabolized
- Nc1nc(NC2CC2)c2ncn([C@H]3C=C[C@@H](CO)C3)c2n1.Nc1nc(NC2CC2)c2ncn([C@H]3C=C[C@@H](CO)C3)c2n1.O=S(=O)(O)O [ABACAVIR SULFATE]: Compound metabolized
- CC(N)C12CC3CC(CC(C3)C1)C2 (stereo not drawn): Compound NOT metabolized
- C[C@]12C=CC(=O)C=C1CC[C@@H]1[C@@H]2C(=O)C[C@@]2(C)[C@H]1CC[C@]2(O)C(=O)CO: Compound NOT metabolized
- CN1CCC(OC(c2ccccc2)c2ccccc2)CC1: Compound NOT metabolized
- Br.COc1ccc2c(c1)[C@]13CCCC[C@@H]1[C@H](C2)N(C)CC3.O [DEXTROMETHORPHAN HYDROBROMIDE]: Compound NOT metabolized
- N#Cc1ccc2[nH]cc(CCCCN3CCN(c4ccc5oc(C(N)=O)cc5c4)CC3)c2c1: Compound metabolized

====

settings: human gut metagenome, 24 h, 2 µM
QUANTITY MEASURED: Bacterial Biotransformation

- COc1ccnc(C[S+]([O-])c2nc3ccc(OC(F)F)cc3[nH]2)c1OC (stereo not drawn) [PANTOPRAZOLE]: Compound NOT metabolized
- C#C[C@]1(OC(C)=O)CC[C@H]2[C@@H]3CCC4=C/C(=N/O)CC[C@@H]4[C@H]3CC[C@@]21CC [NORGESTIMATE]: Compound NOT metabolized
- CC(=O)Nc1ccc(OC(C)=O)cc1 [DIACETAMATE]: Compound metabolized
- CCN(CC)CCNC(=O)c1cc(S(C)(=O)=O)ccc1OC [TIAPRIDE]: Compound NOT metabolized
- CC(CCc1ccccc1)NCC(O)c1ccc(O)c(C(N)=O)c1 (stereo not drawn) [LABETALOL]: Compound NOT metabolized
- Nc1nc(NC2CC2)c2ncn([C@H]3C=C[C@@H](CO)C3)c2n1.Nc1nc(NC2CC2)c2ncn([C@H]3C=C[C@@H](CO)C3)c2n1.O=S(=O)(O)O [ABACAVIR SULFATE]: Compound metabolized
- CC1=C(CC(=O)O)c2cc(F)ccc2/C1=C\c1ccc([S+](C)[O-])cc1 (stereo not drawn): Compound metabolized
- Br.COc1ccc2c(c1)[C@]13CCCC[C@@H]1[C@H](C2)N(C)CC3.O [DEXTROMETHORPHAN HYDROBROMIDE]: Compound NOT metabolized

====

conditions: human gut metagenome, 24 h, 2 µM
QUANTITY MEASURED: Bacterial Biotransformation

• COc1ccnc(C[S+]([O-])c2nc3ccc(OC(F)F)cc3[nH]2)c1OC (stereo not given) = Compound metabolized
• CC(C)c1nc(N(C)S(C)(=O)=O)nc(-c2ccc(F)cc2)c1/C=C/[C@@H](O)C[C@@H](O)CC(=O)[O-].CC(C)c1nc(N(C)S(C)(=O)=O)nc(-c2ccc(F)cc2)c1/C=C/[C@@H](O)C[C@@H](O)CC(=O)[O-].[Ca+2] = Compound NOT metabolized
• CC#C[C@]1(O)CC[C@H]2[C@@H]3CCC4=CC(=O)CCC4=C3[C@@H](c3ccc(N(C)C)cc3)C[C@@]21C = Compound metabolized
• O=C(NC(Cc1cc(=O)[nH]c2ccccc12)C(=O)O)c1ccc(Cl)cc1 (stereo not given) [REBAMIPIDE] = Compound metabolized
• CC(=O)Oc1ccc(C(c2ccc(OC(C)=O)cc2)c2ccccn2)cc1 = Compound metabolized
• CCN(CC)CCNC(=O)c1cc(S(C)(=O)=O)ccc1OC [TIAPRIDE] = Compound metabolized
• CN1CCC(=C2c3ccccc3CC(=O)c3sccc32)CC1.O=C(O)/C=C/C(=O)O [KETOTIFEN FUMARATE] = Compound metabolized
• COCCCC/C(=N\OCCN)c1ccc(C(F)(F)F)cc1.O=C(O)/C=C\C(=O)O [FLUVOXAMINE MALEATE] = Compound NOT metabolized
• CCOC(=O)[C@H](CCc1ccccc1)N[C@@H](C)C(=O)N1CCC[C@H]1C(=O)O.O=C(O)/C=C\C(=O)O [ENALAPRIL MALEATE] = Compound NOT metabolized
• CCN1CCCC1CNC(=O)c1cc(S(=O)(=O)CC)c(N)cc1OC (stereo not given) [AMISULPRIDE] = Compound metabolized
• Nc1nc(NC2CC2)c2ncn([C@H]3C=C[C@@H](CO)C3)c2n1.Nc1nc(NC2CC2)c2ncn([C@H]3C=C[C@@H](CO)C3)c2n1.O=S(=O)(O)O [ABACAVIR SULFATE] = Compound metabolized
• N=C(N)NC(=O)Cc1c(Cl)cccc1Cl = Compound NOT metabolized
• Br.COc1ccc2c(c1)[C@]13CCCC[C@@H]1[C@H](C2)N(C)CC3.O [DEXTROMETHORPHAN HYDROBROMIDE] = Compound metabolized
• C[C@@H](c1ncncc1F)[C@](O)(Cn1cncn1)c1ccc(F)cc1F = Compound metabolized
• CN1CCN(C2=Nc3ccccc3Oc3ccc(Cl)cc32)CC1.O=C(O)CCC(=O)O [LOXAPINE SUCCINATE] = Compound NOT metabolized
